- Tested on: IGROV-1
- assay: NCI tumour cell line growth inhibition, 48 h
Activity calls are given as the source filed them. Rule as the data show it: active = GI50 up to about 1.1 µM and inactive = higher.
Parameter call: string, one of y (active), n (inactive)

Would you mind telling me which call this test gave C=C1CC(OC)(C(OC)C(=O)N(C)[C@H]2OCO[C@H]3C2O[C@H](C[C@@H](COC)OC)C(C)(C)C3OC)O[C@H](C)[C@@H]1C (some centres not stated) ? n

# lookup: test call for COC(=O)C1CC(c2ccc(Cl)cc2)=NO1 (configuration not stated) n

Which outcome was assigned to `COCn1cnc2c(=O)nc(SC)n(-c3ccccc3)c21` in this test? n

Short answer needed: outcome of this test for CN(C)C(=O)C(NCCO)c1ccccc1 (configuration not stated) ? n

# fetch the recorded call for `O=c1[nH]c(Br)nc2c(Br)c[nH]c12` here n

Which outcome did this test record for the compound CN(C)CC(NC(NCS)C(=O)NCCNc1ccc(NCCNC(=O)C(NCS)NC(CN(C)C)OCCl)c2c1C(=O)c1c(O)ccc(O)c1C2=O)OCCl (configuration not stated) ? y

Per the assay record, what outcome was assigned to `Nc1cccc2nsnc12` ? n

Record request — test call for `N=C(N)NS(=O)(=O)c1ccc(NNc2c3ccccc3nc3c(C(=O)Nc4ccc(S(=O)(=O)Nc5ncccn5)cc4)cccc23)cc1` n

Recorded test outcome, item `CNC(=S)N/N=C(/C)CCC/C(C)=N/NC(=S)NC` n

Hi, do you know how `CC(=O)NC(=O)/N=C1\NCCC(=O)N1CCc1c[nH]c2ccccc12` came out in this test? n

Would you mind telling me which call this test gave O=C(Nc1nnc(-c2ccccc2)o1)C(SC(=S)N1CCCCC1)c1ccccc1 (configuration not stated) ? n

Please state the recorded outcome for this compound: `N[C@H](COCc1ccccc1)c1ccccc1` n

# lookup: test call for `N#Cc1cc(NC(=O)c2ccccc2)c(=O)n2c1[nH]c1ccccc12` n

Assay outcome for COc1ccc(S(=O)(=O)N2C(=O)CCC2C(=O)NN)cc1 (configuration not stated) : what was it? n

Dear colleague, could you share the recorded outcome for `CC(=O)N1C(=O)/C(=C\C(=O)c2ccc(Cl)cc2)c2ccccc21` when you have a moment? n

Outcome logged for `C=CCn1c(=O)c2ccccc2[n+]2c(C)c(C(=O)OCC)sc12` in this assay: n

Record request — test call for C=CCOC(C)(C)C1=CCC(C)CC1 (configuration not stated) n

Short answer needed: outcome of this test for `N=c1oc2ccccc2cc1-c1nc2ccccc2[nH]1` ? n

What call does the record list for O=C1OC(c2ccccc2)=N/C1=C/NC(CO)C(=O)O (configuration not stated) ? n

For `O=C(Nn1c(-c2ccccc2)nc2ccccc2c1=O)c1ccc(Cl)cc1` , which call appears in the assay record? n

Test call, this compound: `COc1cc2ccnc3c2c(c1OC)-c1coc(SC)c1-3` n

Entry CO/N=C1/c2sccc2[C@H](NC(=O)C(Cc2ccccc2)NC(=O)OC(C)(C)C)[C@@H]1O (some centres not stated) : call = ? n

---

- System: SF-268
- assay: NCI tumour cell line growth inhibition, 48 h
The source made the active and inactive calls. Cut-off read from the data, not from the text of the source: active = GI50 up to about 1.1 µM and inactive = higher.
Return exactly one item of y (active), n (inactive)

Field: outcome | Entry: `O=C(N/N=C\c1c(O)ccc2ccccc12)c1ccncc1` y

# lookup: test call for C=C(Cl)C(C)(Cl)CCC(Cl)C(C)(C)Cl (stereo not given) n

Status in this test for `COC(=O)C1(C(=O)OC)CC(=O)c2cc3c(cc2-c2c(cc(OC)c(OC)c2OC)C1)OCO3` ? n

Would you mind telling me which call this test gave `C1=CC=C2NCCCCCCC/N=C3/C=CC=CC=C3NCCCCCCC/N=C\2C=C1` ? n

I'd appreciate the recorded outcome for `Fc1nc(F)nc(-c2c3ccccc3c3n2CCS3)n1` from this test. n

Call for entry COc1cc(C2C(Cl)C(=O)N2NC(=O)c2ccc(NC(C)=O)cc2)cc(OC)c1OC (stereo not given) : n

Could you kindly confirm the outcome this assay logged for C=CCOC(C)(C)C1=CCC(C)CC1 (stereo not given) ? n

Look up the recorded call for CN(C)CC(NC(NCS)C(=O)NCCNc1ccc(NCCNC(=O)C(NCS)NC(CN(C)C)OCCl)c2c1C(=O)c1c(O)ccc(O)c1C2=O)OCCl (stereo not given) in this test. y

How did this test come out for `COC(=O)/C=C(/OC)[C@H](C)[C@H](/C=C/c1csc(-c2csc(C(C)C)n2)n1)OC` ? y

Kindly provide the recorded test outcome for the following compound: `CCCCCCCCCCCC[N+]12CC[N+](CCN)(CC1)CC2` n

I'd appreciate the recorded outcome for `CC(C)(C)OC(=O)N(CCNS(=O)(=O)c1cccc2cnccc12)CCC(=O)ON1C(=O)CCC1=O` from this test. n

Test call for this compound, please: C=CCOC(=O)NC1C(OC(C)[C@@H](NC(=O)OCc2ccccc2)C(=O)OC(C)(C)C)OC(COC(C)=O)C(OC(C)=O)C1OC(C)=O (stereo not given in full) n

Fill in: this test's call for COC(=O)C1C(OC(=O)C(Cl)(c2ccccc2)c2ccccc2)CC2CCC1N2C (stereo not given) is ___ n

Write down the call the test reported for this compound. Item: `Cc1ccc2cccc(OC(=O)c3cc4c(cc3Cl)Sc3nccn3S4(=O)=O)c2n1` n

Status in this test for `CCCCCc1c2nc(c(CCCCC)c3ccc([nH]3)c(CCCCC)c3nc(c(CCCCC)c4ccc1[nH]4)C=C3)C=C2` ? n

Dear all, I need the recorded test outcome for `CCOC(=O)CON=c1c2ccccc2ccc2ccccc12` , thank you. n

Record request — test call for CSc1nc(NC2OC(CO)C(O)C(O)C2O)c(N)c(=O)n1C (stereo not given) n

What is the recorded call for this compound in the test? COC(=O)C(=O)C(C(=O)OC)C(=O)C(=O)Nc1c(Cl)cc([N+](=O)[O-])cc1Cl (stereo not given) n

I would be grateful if you could indicate the recorded call for `Oc1ccc([Te]CCNCC[Te]c2ccc(O)cc2)cc1` . n

Name the outcome recorded for `COc1ccc(/C=C/C(=O)/C=C/c2ccc(OC)cc2)cc1` in the assay. n

Each recorded value in this set is attributed to ChEMBL document CHEMBL1201862.
